FYI, the data here is from PubChem BioAssay (Tox21).

Target: Estrogen receptor (Homo sapiens)
Experiment: qHTS assay to identify small molecule antagonists of the estrogen receptor alpha (ER-alpha) signaling pathway using the BG1 cell line in the presence of 0.1 nM 17-beta-estradiol (AID 1259244); note: nearly all actives have a fitted effect of over 50% in size
Details: VM7Luc4E2 (BG1) ERE-luciferase, antagonist mode, 0.1 nM E2, 22 h; series mostly up to 92.4 µM
Results filed as inconclusive are left out. The source made the active and inactive calls. Calls come from the whole dose curve; as a rule, active = well fitted inhibition curve with a large enough effect in the repeat runs; inconclusive = weak or mixed curves; inactive = no such curve, though single readings can be large or run the other way.
Pick from active, inactive when you respond.

# lookup: test call for O=C(Nc1ccc2c(O)c(N=Nc3ccc(N=Nc4ccc(S(=O)(=O)O)cc4)cc3)c(S(=O)(=O)O)cc2c1)c1ccccc1
active

Recorded call for CCCCCCCCCCCC(=O)OCC(C)OC(=O)CCCCC(=O)O (stereo not drawn) ?
inactive

Tell me the assay call for COc1ccc(-c2coc3cc(O)ccc3c2=O)cc1 please.
inactive

Tell me the assay call for CC(=O)CC(=O)Nc1ccc(S(=O)(=O)O)cc1 please.
inactive

Dear colleague, could you share the recorded outcome for CC(=O)Oc1cc2c(s1)CCN(C(C(=O)C1CC1)c1ccccc1F)C2 (stereo not drawn) when you have a moment?
inactive

Which outcome was entered for the compound CCCCCCCCCCC[C@@H](C[C@@H]1OC(=O)[C@H]1CCCCCC)OC(=O)[C@H](CC(C)C)NC=O in this test?
inactive

GET /call?item= CC[N+](CC)(CC)CCOc1ccc(/C=C/c2ccccc2)cc1 returns the recorded outcome of this test.
active

Please share the test call associated with c1ccsc1 .
inactive

Test call, this compound: OC/C=C/CO
inactive

For O=C(O)c1cc(-c2ccc(F)cc2F)ccc1O , what call appears in the results of this test?
inactive

Returns: the outcome recorded for C=CC(C)(CCC=C(C)C)OC=O (stereo not drawn) in this assay.
inactive

Called result for Cc1c(C)c([N+](=O)[O-])c(C(C)(C)C)c([N+](=O)[O-])c1C
inactive

For Cc1ccc(C(C)C)cc2c(C)ccc1-2 , what call appears in the results of this test?
inactive

What is the recorded call for this compound in the test? COC(=O)c1ccccc1OC
inactive

I'd appreciate the recorded outcome for CCN(CC)C(=O)c1cc(S(=O)(=O)Cc2ccccc2)c(N2CCC(c3ccccc3)CC2)cc1N(CC)CCN(C)C from this test.
inactive

Hi, sorry to bother you, what did the test record for CC(C)(C)c1csc(-c2cc3cc(OCc4ccccc4CC(=O)O)ccc3o2)n1 ?
inactive

I would be grateful if you could indicate the recorded call for CC1(C)[C@@H](O)CC[C@]2(C)[C@H]3C(=O)C=C4[C@@H]5C[C@@](C)(C(=O)O)CC[C@]5(C)CC[C@@]4(C)[C@]3(C)CC[C@@H]12 .
inactive

// outcome(item) with item = CCOC(=O)NNc1ccc(N(CC)CC(C)O)nn1 (stereo not drawn)
inactive

---

Biological target: Nuclear receptor subfamily 1 group I member 3 (Homo sapiens)
Experiment: qHTS assay to identify small molecule agonists of the constitutive androstane receptor (CAR) signaling pathway (AID 1224839); note: nearly all actives have a fitted effect of over 15% in size;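 for activation: HepG2 cells stably carrying human CAR and a CYP2B6 luciferase reporter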
Details: HepG2 hCAR CYP2B6-luciferase, agonist mode, 24 h; series mostly up to 92.4 µM
Results filed as inconclusive are left out. Calls of active or inactive are those of the source. Calls come from the whole dose curve; as a rule, active = well fitted activation curve with a large enough effect in the repeat runs; inconclusive = weak or mixed curves; inactive = no such curve, though single readings can be large or run the other way.
Classes to choose from: active, inactive

Assay outcome for O=C(O)c1cc(N=Nc2ccc([N+](=O)[O-])cc2)ccc1O : what was it?
active

Lab log entry: Sc1nc2ccccc2s1 — outcome as called in the assay?
inactive

Recorded call for COc1ccc(NC(=O)CC(C)=O)cc1 ?
inactive

Tell me the assay call for O=C(O)c1cc(=O)c2ccccc2o1 please.
inactive

Write down the call the test reported for this compound. Item: C=Cc1cccc(C)c1
inactive
